Target: T1, hCD112R mFC recombinant protein (human; murine, UniProt Q6DKI7 41-160)
T1 construct: range 41-160; expressed in 293E cells; also called hCD112R ECD mFC; hCD112R-ECD-mFC; not shown: murine IgG2a Fc domain (MX2-mFc vector)
T1 sequence (looked up): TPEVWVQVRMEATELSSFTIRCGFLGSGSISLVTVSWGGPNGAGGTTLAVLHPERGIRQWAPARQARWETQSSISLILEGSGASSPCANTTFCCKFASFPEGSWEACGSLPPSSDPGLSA
Experiment: FACS blocking: hCD112R mFc (5 µg/mL) binding to human CD112 on CHO CD112 cells, MFI-APC; unit from the axis (µg/mL), Table 8 says ng/ml
measured quantity: IC50 (µg/mL)
Answers are plain numbers, in µg/mL.

binder: Chi-61 (antibody, V domains shown, chimeric) VH: DVKLVESGGGLVKLGGSLKLSCAASGFTFSSYHMSWVRQTPEKRLELVAAISRDGDSTYYPDTVKGRFTISRDDAENTLYLQMSSLKSEDTALYYCSRHEDYFGFAMDSWGQGTSVTVSS VL: SIVMTQTPKFLLVSAGDRVTITCKASQSVSNDVAWYQEKPGQSPKLLMYYVSHRFTGVPDRFTGSGYGTDFTFTINTVQAEDLAVYFCHQAYRSPWTFGGGTKLEIK
value reported: 0.965

Alright, here's another binder for you.
Q. Field request: IC50 | item: Chi-70 (antibody, V domains shown, chimeric) VH: DVQLVESGGGLVKLGGSLKLSCVASGFTFSSYHMSWIRQTPEKRLELVAAINSNDINTYYLDTVKGRFTISRDIAKNTLHLQMSSLKSEDTALYYCARHEDYYGFAMDYWGQGTSVTVSS VL: SIVMTQTPKFLLVSAGDRVTITCKASQSVSNDVAWYQQKPGQSPKLLMYYVSNRFTGVPDRFTGSGYGTDFTFTINTVQAEDLAVYFCQQAYRSPWTFGGGTKLEIK
A. 0.708
